# Target System: HLA-B*15:01
# Assay: IEDB peptide-MHC binding, purified MHC/competitive/fluorescence; filed as Kd, often an IC50 or EC50 that approximates it; bounds were set here for any values at or beyond the usual limits of such assays
# Experimental Conditions: source organism: Vibrio vulnificus CMCP6
Measured Attribute: Kd
Please answer in the form of a number followed by its unit of measurement.

Reported Kd ( "VTFFCVMTY" ) = 2230 nM

---

# Target System: HLA-A*68:02
# Assay: IEDB peptide-MHC binding, purified MHC/direct/fluorescence; filed as Kd, often an IC50 or EC50 that approximates it; bounds were set here for any values at or beyond the usual limits of such assays
# Experimental Conditions: source organism: Pergamino virus
Measured Attribute: Kd

The sequence listed as "SCINGQCPY" shows Kd equal to ≥ 20 µM

---

# Target System: HLA-A*68:01
# Assay: IEDB peptide-MHC binding, purified MHC/competitive/radioactivity; filed as Kd, often an IC50 or EC50 that approximates it; bounds were set here for any values at or beyond the usual limits of such assays
# Experimental Conditions: source organism: Mammarenavirus brazilense
Measured Attribute: Kd

Form: sequence = "DFTLFIKTGH" ; Kd = 2.48 µM

What the record says about "QAEPSLYGRH" : Kd is ≥ 70.1 µM

Consider "NYILCYRKPH" . Its measured Kd is ≥ 24.5 µM

---

# Target System: HLA-B*51:01
# Assay: IEDB peptide-MHC binding, purified MHC/direct/fluorescence; filed as Kd, often an IC50 or EC50 that approximates it; bounds were set here for any values at or beyond the usual limits of such assays
# Experimental Conditions: source organism: Vibrio cholerae
Measured Attribute: Kd

For reference, reported Kd for "IVKQGRDAL" stands at ≥ 20 µM

---

# Target System: HLA-A*03:01
# Assay: IEDB peptide-MHC binding, purified MHC/competitive/fluorescence; bounds were set here for any values at or beyond the usual limits of such assays
# Experimental Conditions: source organism: Vaccinia virus
Measured Attribute: IC50

Reported IC50 for "IKGTSGTEK" was ≥ 187 µM

Sure, the documented IC50 for "LRYLLFGIK" is 15.4 µM

// recorded IC50 for "YIKNIGNTK" : 6.51 µM

---

# Target System: HLA-A*26:01
# Assay: IEDB peptide-MHC binding, purified MHC/direct/fluorescence; filed as Kd, often an IC50 or EC50 that approximates it; bounds were set here for any values at or beyond the usual limits of such assays
# Experimental Conditions: source organism: Influenza A virus(A/swine/Shandong/fNY/2003(H9N2))
Measured Attribute: Kd

Sample "RELVRKTRF" , system: HLA-A*26:01. Its Kd is ≥ 20 µM

---

# Target System: HLA-A*26:01
# Assay: IEDB peptide-MHC binding, purified MHC/competitive/fluorescence; filed as Kd, often an IC50 or EC50 that approximates it; bounds were set here for any values at or beyond the usual limits of such assays
# Experimental Conditions: source organism: Lechiguanas virus
Measured Attribute: Kd

Memo: "KLKSVGKAY" , reported Kd: ≥ 20 µM

---

# Target System: HLA-A*02:01
# Assay: IEDB peptide-MHC binding, purified MHC/competitive/fluorescence; filed as Kd, often an IC50 or EC50 that approximates it; bounds were set here for any values at or beyond the usual limits of such assays
# Experimental Conditions: source organism: Shigella flexneri 5 str. 8401
Measured Attribute: Kd

Query "FGALFMWLL" yields Kd of ≥ 20 µM

---

# Target System: HLA-B*39:01
# Assay: IEDB peptide-MHC binding, purified MHC/direct/fluorescence; filed as Kd, often an IC50 or EC50 that approximates it; bounds were set here for any values at or beyond the usual limits of such assays
# Experimental Conditions: source organism: Giardia lamblia ATCC 50803
Measured Attribute: Kd

Form field Kd, entry "RENQVAVVR" : ≥ 20 µM

---

# Target System: HLA-A*02:01
# Assay: IEDB peptide-MHC binding, purified MHC/direct/fluorescence; filed as Kd, often an IC50 or EC50 that approximates it; bounds were set here for any values at or beyond the usual limits of such assays
# Experimental Conditions: source organism: H9N2 subtype Influenza A virus (A/swine/Korea/S81/2004(H9N2))
Measured Attribute: Kd

Measured Kd, "KAVRGDLNF" : ≥ 20 µM

---

# Target System: HLA-A*68:02
# Assay: IEDB peptide-MHC binding, purified MHC/direct/fluorescence; filed as Kd, often an IC50 or EC50 that approximates it; bounds were set here for any values at or beyond the usual limits of such assays
# Experimental Conditions: source organism: Cryptosporidium parvum
Measured Attribute: Kd

Lab note: "RKWGLDFCY" gave Kd of ≥ 20 µM

---

# Target System: HLA-A*26:01
# Assay: IEDB peptide-MHC binding, purified MHC/direct/fluorescence; filed as Kd, often an IC50 or EC50 that approximates it; bounds were set here for any values at or beyond the usual limits of such assays
# Experimental Conditions: source organism: Giardia lamblia ATCC 50803
pKd: −log10 of the molar value.
Kindly supply the reported pKd values for the records listed here.

The reported value for "EFFDTEPQL" in terms of pKd is ≤ 4.70

The recorded pKd for entry "MVSIQWHAM" equals 5.43

The reported value for "PTKCGENLY" in terms of pKd is ≤ 4.70

Memo: "KLLQICMWF" , reported pKd: ≤ 4.70

Recorded pKd (sequence "KTPWDRFCK" ): ≤ 4.70

---

# Target System: HLA-B*18:01
# Assay: IEDB peptide-MHC binding, purified MHC/competitive/fluorescence; filed as Kd, often an IC50 or EC50 that approximates it; bounds were set here for any values at or beyond the usual limits of such assays
# Experimental Conditions: source organism: Orthohantavirus sinnombreense
pKd: −log10 of the molar value.
Measured Attribute: pKd

Measured pKd of "RTLGVFRYK" : ≤ 4.70

---

# Target System: HLA-B*15:09
# Assay: IEDB peptide-MHC binding, purified MHC/competitive/fluorescence; filed as Kd, often an IC50 or EC50 that approximates it; bounds were set here for any values at or beyond the usual limits of such assays
# Experimental Conditions: source organism: Mycobacterium tuberculosis C
Measured Attribute: Kd (nM)
State just the number; it will be interpreted in nM.

sequence "RPAPATGAL" , Kd observed: 78.6

---

# Target System: HLA-B*15:09
# Assay: IEDB peptide-MHC binding, purified MHC/direct/fluorescence; filed as Kd, often an IC50 or EC50 that approximates it; bounds were set here for any values at or beyond the usual limits of such assays
# Experimental Conditions: source organism: Vibrio cholerae V52
Measured Attribute: Kd (nM)
# value in nM; strip the unit string

Entry "TMDVYVMIL" , tested on HLA-B*15:09, has a reported Kd of 384

---

Could you please report measured Kd for the items listed next?
# Target System: HLA-B*51:01
# Assay: IEDB peptide-MHC binding, purified MHC/competitive/radioactivity; filed as Kd, often an IC50 or EC50 that approximates it; bounds were set here for any values at or beyond the usual limits of such assays
# Experimental Conditions: source organism: SARS coronavirus Tor2
Respond numerically; units are µM and should not be typed.

Lab note: sequence "VPANSTVLSF" tested on HLA-B*51:01; recorded Kd was 3.25

HLA-B*51:01 assay, sequence "MPASWVMRIM" , recorded Kd = 0.00861

---

# Target System: HLA-B*18:01
# Assay: IEDB peptide-MHC binding, purified MHC/competitive/fluorescence; filed as Kd, often an IC50 or EC50 that approximates it; bounds were set here for any values at or beyond the usual limits of such assays
# Experimental Conditions: source organism: Homo sapiens
Measured Attribute: Kd

Noted for "FAAPHRGVA" : its Kd reads ≥ 20 µM

---

# Target System: HLA-A*29:02
# Assay: IEDB peptide-MHC binding, purified MHC/competitive/fluorescence; bounds were set here for any values at or beyond the usual limits of such assays
# Experimental Conditions: source organism: Ateles geoffroyi
Measured Attribute: IC50 (nM)
Numeric only. Scale: nM

Lab note: measured IC50 of "LPADPASVL" was 1090

---

# Target System: HLA-A*24:03
# Assay: IEDB peptide-MHC binding, purified MHC/competitive/fluorescence; filed as Kd, often an IC50 or EC50 that approximates it; bounds were set here for any values at or beyond the usual limits of such assays
# Experimental Conditions: source organism: Vibrio cholerae 2740-80
pKd: −log10 of the molar value.
Measured Attribute: pKd

Value of measured pKd for the entry "HSYLWDHQM" : ≤ 4.70

---

# Target System: HLA-B*46:01
# Assay: IEDB peptide-MHC binding, purified MHC/competitive/fluorescence; filed as Kd, often an IC50 or EC50 that approximates it; bounds were set here for any values at or beyond the usual limits of such assays
# Experimental Conditions: source organism: Giardia lamblia ATCC 50803
Measured Attribute: Kd

Kd reading for "AILAGEHKC" : ≥ 20 µM
